- protocol_text: in vivo
- details: SD (Sprague-Dawley), rat, sc, 100 ug/kg, Concentration in Serum
readout_label: level at 4 h (ng/mL)

1) CCNC(=O)[C@@H]1CCCN1C(=O)[C@H](CCCNC(=N)N)NC(=O)[C@H](CC(C)C)NC(=O)[C@@H](CC(C)C)NC(=O)[C@H](Cc1ccc(O)cc1)NC(=O)[C@H](CO)NC(=O)[C@H](Cc1c[nH]c2ccccc12)NC(=O)[C@H](Cc1c[nH]cn1)NC(=O)[C@@H]1CCC(=O)N1 ... 6.7

---

- protocol_text: in vivo
- details: SD (Sprague-Dawley), rat, sc, 100 ug/kg, Concentration in Serum
readout_label: level at 2 h (ng/mL)

1. CCNC(=O)[C@@H]1CCCN1C(=O)[C@H](CCCNC(=N)N)NC(=O)[C@H](CC(C)C)NC(=O)[C@@H](CC(C)C)NC(=O)[C@H](Cc1ccc(O)cc1)NC(=O)[C@H](CO)NC(=O)[C@H](Cc1c[nH]c2ccccc12)NC(=O)[C@H](Cc1c[nH]cn1)NC(=O)[C@@H]1CCC(=O)N1 [TAP-144] ... 24
